read-out: Cytochrome P450 4A22 (Homo sapiens) (UniProt Q5TCH4); test: LTEA_HepaRG_CYP4A22: Life Technologies and Expression Analysis (LTEA) Assay for Cytochrome P450 4A22 (CYP4A22) using HepaRG (AID 2283495); settings: mRNA level, 48 h; actives raise or lower the signal
The source made the active and inactive calls. Rule for the calls: active = hit-call score of the fitted dose curve at least 0.9, where 1 is the maximum; inactive = score below 0.9.
Just give me one of these, please: active, inactive

Any idea what this test logged for Cc1cc(Cc2ccc(N)c(C)c2)ccc1N ?
inactive

Any idea what this test logged for CC(C)(C)c1ccccc1 ?
inactive

Any idea what this test logged for O=C1OC(c2ccc(O)cc2)(c2ccc(O)cc2)c2ccccc21 ?
inactive

Any idea what this test logged for O=C(O)c1[nH]n(-c2ccc(S(=O)(=O)O)cc2)c(=O)c1N=Nc1ccc(S(=O)(=O)O)cc1 ?
inactive

Any idea what this test logged for C/C=C/c1ccc(OC)cc1 ?
inactive

Any idea what this test logged for Nc1nc(=S)c2[nH]cnc2[nH]1 ?
active

Any idea what this test logged for Cc1ccc(-c2cc(C(F)(F)F)nn2-c2ccc(S(N)(=O)=O)cc2)cc1 ?
inactive

Any idea what this test logged for COc1ccc(OC(F)(F)F)cc1CN[C@H]1CCCN[C@H]1c1ccccc1 ?
active

Any idea what this test logged for CO[C@@H]1COCC[C@@H]1N[C@@H]1CC[C@@](C(=O)N2CCc3ncc(C(F)(F)F)cc3C2)(C(C)C)C1 ?
inactive

Any idea what this test logged for CCCCC(CC)COP(=O)(OCC(CC)CCCC)OCC(CC)CCCC (configuration not stated) ?
inactive

Any idea what this test logged for O=Cc1ccccc1C=O ?
inactive

Any idea what this test logged for CC(=O)CC(c1ccccc1)c1c(O)c2ccccc2oc1=O (configuration not stated) ?
inactive

====

target: human Neurokinin, NK2 Receptor, TACR2 (gene 6865) (UniProt P21452); assay: NVS_GPCR_hNK2: NovaScreen (NVS) G Protein-Coupled Receptor Assay for human Neurokinin, NK2 Receptor (AID 2283278);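 note: actives reduce bound radioligand signal relative to DMSO baseline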
Sequence (P21452 whole entry, looked up): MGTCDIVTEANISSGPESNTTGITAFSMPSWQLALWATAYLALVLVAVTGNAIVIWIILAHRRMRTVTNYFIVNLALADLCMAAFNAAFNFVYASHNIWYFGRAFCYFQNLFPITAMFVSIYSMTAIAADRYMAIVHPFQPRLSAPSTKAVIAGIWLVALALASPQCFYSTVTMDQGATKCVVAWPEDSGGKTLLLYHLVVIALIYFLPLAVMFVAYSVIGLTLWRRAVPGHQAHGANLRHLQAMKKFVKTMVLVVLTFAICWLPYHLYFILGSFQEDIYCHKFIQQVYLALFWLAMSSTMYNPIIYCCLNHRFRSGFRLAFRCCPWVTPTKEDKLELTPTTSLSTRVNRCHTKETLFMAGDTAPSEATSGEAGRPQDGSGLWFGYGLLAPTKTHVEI
Records with an inconclusive call do not appear. Activity calls are given as the source filed them. Rule for the calls: active = hit-call score of the fitted dose curve at least 0.9, where 1 is the maximum; inconclusive = response in the unintended direction; inactive = score below 0.9.
recorded-metric: AC50

// AC50 value for CCC(C)N(C)C(=O)c1cc2ccccc2c(-c2ccccc2Cl)n1 (stereo not drawn) : 15.9 µM (active)

// AC50 value for COc1ccc(OC(F)(F)F)cc1CN[C@H]1CCCN[C@H]1c1ccccc1 : 13.5 µM (active)

// AC50 value for CCN(CC)CCOc1ccc(C(=C(Cl)c2ccccc2)c2ccccc2)cc1 : 9.71 µM (active)

// AC50 value for O=C(N[C@@H](c1ccccc1)[C@@H]1CCCCN1)c1cccc(C(F)(F)F)c1Cl : 17.8 µM (active)

// AC50 value for CN(C)C(=O)NC1(c2ccccc2)CCN(CCC[C@]2(c3ccc(Cl)c(Cl)c3)CCCN(C(=O)c3ccccc3)C2)CC1 : 0.164 µM (active)

// AC50 value for CSc1ccc(Oc2ccc(S(N)(=O)=O)cc2CN(C)C)cc1C : 6.33 µM (active)

// AC50 value for CN(C)CCCN1c2ccccc2Sc2ccc(Cl)cc21 : 25 µM (active)

====

Target: X-box-binding protein 1 (Homo sapiens) (UniProt P17861)
Sequence (P17861 whole entry, looked up): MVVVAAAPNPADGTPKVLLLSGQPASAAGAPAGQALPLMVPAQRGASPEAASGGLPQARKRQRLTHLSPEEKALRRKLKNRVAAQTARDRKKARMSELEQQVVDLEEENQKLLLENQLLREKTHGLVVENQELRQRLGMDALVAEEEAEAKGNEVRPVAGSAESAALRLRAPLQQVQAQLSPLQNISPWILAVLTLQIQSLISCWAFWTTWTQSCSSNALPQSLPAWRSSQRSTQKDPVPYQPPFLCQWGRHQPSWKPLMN
Experiment: ATG_Xbp1_CIS: Attagene CIS-FACTORIAL HepG2 Assay for human X-box Binding Protein 1 (XBP1) (AID 2282972)
Details: HepG2 XBP1 cis-element reporter, Attagene multiplex; actives raise or lower the signal
Description: ATG_CIS is a cell-based, multiplexed-readout assay that uses HepG2, a human liver cell line, with measurements taken at 24 hours after chemical dosing in a 24-well plate.ATG_Xbp1_CIS is one of 52 assay component(s) measured or calculated from the ATG_CIS assay. […] This assay endpoint, ATG_Xbp1_CIS, was analyzed with bidirectional fitting relative to DMSO as the negative control and baseline of activity. […]
Calls of active or inactive are those of the source. How the source made its calls: active means hit-call score of the fitted dose curve at least 0.9, where 1 is the maximum; inactive means score below 0.9.
Just give me one of these, please: Yes = active, No = inactive

Any idea what this test logged for CS(=O)(=O)c1ccc([C@@H](C[C@H]2CCC(=O)C2)C(=O)Nc2cnccn2)cc1Cl ?
No

Any idea what this test logged for O=C(Oc1ccccc1)c1cccc(C(=O)Oc2ccccc2)c1 ?
No

Any idea what this test logged for CCCCOC(=O)CCCCC(=O)OCCCC ?
No

Any idea what this test logged for CCCCC(CC)COC(=O)CCCCCCCC(=O)OCC(CC)CCCC (stereo not drawn) ?
No

Any idea what this test logged for CC(C)c1cccc(C(C)C)c1 ?
No

Any idea what this test logged for CC(=O)S[C@H](C(=O)N[C@H]1Cc2ccccc2[C@H]2CCC[C@@H](C(=O)O)N2C1=O)C(C)C ?
No

Any idea what this test logged for CN(C)CCCN1c2ccccc2Sc2ccc(Cl)cc21 ?
No

Any idea what this test logged for CC(C)(C)c1ccccc1 ?
No

Any idea what this test logged for CC1(C)C(=O)NC(=O)N1CO ?
No

Any idea what this test logged for O=C(O)CN(CC(=O)O)CC(=O)O ?
No

Any idea what this test logged for CCCCc1nc2cccnc2n1Cc1ccc(-c2ccccc2-c2nnn[nH]2)cc1 ?
No

Any idea what this test logged for O=Cc1ccccc1C=O ?
No

Any idea what this test logged for Oc1ccc(O)cc1 ?
Yes
